measured-on: T1, Recombinant human insulin receptor (B form) ECD (R&D Systems) (human, UniProt P06213 28-956, limits assumed)
T1 construct: extracellular domain; also called INSR-ECD; h-INSR
measurement-protocol: SPR (Biacore 2000), INSR-ECD immobilised; relative to 247.2.018 Fab
// Fold KD Improvement lookup, one value per entry
# output: bare number, implied unit fold

## Task What value of Fold KD Improvement has been recorded for this entry: RHF.15.05896.015 (Fab, V domains shown, Untagged Fab) VH: EVQLVETGGGVVQPGRSLRLSCAASGFKFSSYAMHWVRQAPGKGLEWVAVISYSGRNKYYADSVKGRFTISRDNSKNTLYLQMNSLRAEDTAVYYCARHEWGFGQDYWGQGTTVTVSS VL: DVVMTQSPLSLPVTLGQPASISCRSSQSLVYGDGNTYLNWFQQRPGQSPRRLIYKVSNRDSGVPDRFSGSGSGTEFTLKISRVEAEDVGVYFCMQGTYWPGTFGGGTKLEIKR
## Result 3.3

## Task Recorded Fold KD Improvement of RHF.15.05896.036 (Fab, V domains shown, Untagged Fab) VH: EVQLVETGGGVVQPGRSLRLSCAASGFKFSSYAMHWVRQAPGKGLEWVAVISYSGGNKYYADSVKGRFTISRDNSKNTLYLQMNSLRAEDTAVYYCARHEWGFGFDLWGQGTTVTVSS VL: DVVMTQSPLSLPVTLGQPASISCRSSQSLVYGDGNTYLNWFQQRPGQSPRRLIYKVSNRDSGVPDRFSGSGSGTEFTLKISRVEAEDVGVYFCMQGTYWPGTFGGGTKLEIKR , please.
## Result 5.4

## Task Field request: Fold KD Improvement | item: RHF.15.05896.032 (Fab, V domains shown, Untagged Fab) VH: EVQLVETGGGVVQPGRSLRLSCAASGFKFSSYAMHWVRQAPGKGLEWVAVISYSGENKYYADSVKGRFTISRDNSKNTLYLQMNSLRAEDTAVYYCARHEWGFGFDEWGQGTTVTVSS VL: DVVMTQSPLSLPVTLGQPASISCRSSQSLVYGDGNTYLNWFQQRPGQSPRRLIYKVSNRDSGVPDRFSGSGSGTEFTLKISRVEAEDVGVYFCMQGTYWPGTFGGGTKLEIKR
## Result 8.6

## Task May I ask what Fold KD Improvement has been recorded for RHF.15.05896.006 (Fab, V domains shown, Untagged Fab) VH: EVQLVETGGGVVQPGRSLRLSCAASGFKFSSYAMHWVRQAPGKGLEWVAVISYSGDNKYYADSVKGRFTISRDNSKNTLYLQMNSLRAEDTAVYYCARHEWGFGFDRWGQGTTVTVSS VL: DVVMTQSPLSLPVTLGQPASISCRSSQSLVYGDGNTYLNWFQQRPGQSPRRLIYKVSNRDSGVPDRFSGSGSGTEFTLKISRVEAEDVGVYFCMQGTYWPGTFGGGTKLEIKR ?
## Result 5.2

This collection of values is drawn from patent US20180251562A1.
